Test: Selectivity index, ratio of CC50 for cytotoxicity against LPS-stimulated mouse RAW264.7 cells to MIC50 for antitubercular activity against Mycobacterium tuberculosis H37Rv
Assay type: toxicity, cell-based
Conditions: LPS-stimulated RAW264.7 cells, read-out: Selectivity Index
endpoint-label: selectivity ratio

{"molecule-smiles": "S=C(Nc1ccccc1)Nc1ccc(Br)cc1", "endpoint-label": "selectivity ratio", "prefix-operator": "=", "observed-result": 0.9}
{"molecule-smiles": "Oc1cccc(NC(=S)NCc2ccccc2)c1", "endpoint-label": "selectivity ratio", "prefix-operator": ">", "observed-result": 2.6}
{"molecule-smiles": "COc1cc(NC(=S)Nc2cc(OC)c(OC)c(OC)c2)cc(OC)c1OC", "endpoint-label": "selectivity ratio", "prefix-operator": "=", "observed-result": 0.9}
{"molecule-smiles": "CCCCN1CCN(C(=S)Nc2ccccc2)CC1", "endpoint-label": "selectivity ratio", "prefix-operator": ">", "observed-result": 6.4}
{"molecule-smiles": "O=C(NNC(=S)NCc1ccccc1)c1ccncc1", "endpoint-label": "selectivity ratio", "prefix-operator": "=", "observed-result": 71.7}
{"molecule-smiles": "CC(C)NC(=S)NCCc1ccccc1", "endpoint-label": "selectivity ratio", "prefix-operator": ">", "observed-result": 1.9}
{"molecule-smiles": "S=C(Nc1ccccc1)N1CCN(c2ccccn2)CC1", "endpoint-label": "selectivity ratio", "prefix-operator": ">", "observed-result": 21.1}
